Data origin, for the record: patent US4220755A

System: Proteus vulgaris KY4277 ATCC6897
Test: MIC, agar dilution method, pH 8.0
Format: cell-based
Conditions: ATCC6897; pH 8.0; Proteus vulgaris KY4277; read-out: Minimum inhibition concentration (MIC), PV
The label is Satisfied for MIC below 5 µg/mL and Not satisfied for MIC equal to or exceeding 5 µg/mL.

{"columns": ["COMPOUND", "MEASURED TARGET", "CLASS ASSIGNMENT"],
 "data": [
  ["CCCC(=O)N(C)[C@H]1[C@@H](O)[C@H](O[C@H]2O[C@H]([C@H](C)N)CC[C@H]2N)[C@@H](N)[C@H](O)[C@@H]1OC", "Proteus vulgaris KY4277 ATCC6897", "Not satisfied"]
]}

Strictly below 5 µg/mL in MIC? `CCC(=O)N(C)[C@H]1[C@@H](O)[C@H](O[C@H]2O[C@H]([C@H](C)N)CC[C@H]2N)[C@@H](N)[C@H](O)[C@@H]1OC`
Not satisfied

Strictly below 5 µg/mL in MIC? `CCCCN(C)[C@H]1[C@@H](O)[C@H](O[C@H]2O[C@H]([C@H](C)N)CC[C@H]2N)[C@@H](N)[C@H](O)[C@@H]1OC`
Not satisfied

Strictly below 5 µg/mL in MIC? `CCCCC(=O)N(C)[C@H]1[C@@H](O)[C@H](O[C@H]2O[C@H]([C@H](C)N)CC[C@H]2N)[C@@H](N)[C@H](O)[C@@H]1OC`
Not satisfied

Strictly below 5 µg/mL in MIC? `CO[C@H]1[C@@H](O)[C@H](N)[C@@H](O[C@H]2O[C@H]([C@H](C)N)CC[C@H]2N)[C@H](O)[C@@H]1N(C)CCN`
Satisfied

Strictly below 5 µg/mL in MIC? `CO[C@H]1[C@@H](O)[C@H](N)[C@@H](O[C@H]2O[C@H]([C@H](C)N)CC[C@H]2N)[C@H](O)[C@@H]1N(C)CCCN`
Not satisfied

Strictly below 5 µg/mL in MIC? CNCCC(O)CN(C)[C@H]1[C@@H](O)[C@H](O[C@H]2O[C@H]([C@H](C)N)CC[C@H]2N)[C@@H](N)[C@H](O)[C@@H]1OC (stereo partly shown)
Satisfied

Strictly below 5 µg/mL in MIC? `CO[C@H]1[C@@H](O)[C@H](N)[C@@H](O[C@H]2O[C@H]([C@H](C)N)CC[C@H]2N)[C@H](O)[C@@H]1N(C)C[C@@H](O)CCN`
Satisfied

Strictly below 5 µg/mL in MIC? `CO[C@H]1[C@@H](O)[C@H](N)[C@@H](O[C@H]2O[C@H]([C@H](C)N)CC[C@H]2N)[C@H](O)[C@@H]1N(C)C(=O)CCCCCN`
Not satisfied

---

System: Shigella sonnei KY4281 ATCC9290
Assay: MIC, agar dilution method, pH 8.0
Assay type: cell-based
Details: ATCC9290; pH 8.0; Shigella sonnei KY4281; read-out: Minimum inhibition concentration (MIC), SS
RECORDED METRIC: MIC (µg/mL)
Just the number in µg/mL, nothing appended.

{"columns": ["MOLECULE", "RECORDED METRIC", "REPORTED MEASUREMENT"],
 "data": [
  ["CCN(C)[C@H]1[C@@H](O)[C@H](O[C@H]2O[C@H]([C@H](C)N)CC[C@H]2N)[C@@H](N)[C@H](O)[C@@H]1OC", "MIC", 6.25],
  ["CNC[C@H](O)CN(C)[C@H]1[C@@H](O)[C@H](O[C@H]2O[C@H]([C@H](C)N)CC[C@H]2N)[C@@H](N)[C@H](O)[C@@H]1OC", "MIC", 2.5],
  ["CCCC(=O)N(C)[C@H]1[C@@H](O)[C@H](O[C@H]2O[C@H]([C@H](C)N)CC[C@H]2N)[C@@H](N)[C@H](O)[C@@H]1OC", "MIC", 50]
]}

Tell me measured MIC for CO[C@H]1[C@@H](O)[C@H](N)[C@@H](O[C@H]2O[C@H]([C@H](C)N)CC[C@H]2N)[C@H](O)[C@@H]1N(C)C(=O)CNC(N)=O [Compound 3, 4-N-hydantoylfortimicin B, reference compound] please.
1.25

Tell me measured MIC for CO[C@H]1[C@@H](O)[C@H](N)[C@@H](O[C@H]2O[C@H]([C@H](C)N)CC[C@H]2N)[C@H](O)[C@@H]1N(C)C(=O)CN [Compound 2, 4-N-glycylfortimicin B, reference compound] please.
0.63

Tell me measured MIC for `CN[C@H]1[C@@H](O)[C@H](O[C@H]2O[C@H]([C@H](C)N)CC[C@H]2N)[C@@H](N)[C@H](O)[C@@H]1OC` please.
50
